biological target: Anti-CD28 Fab (SEQ ID NOs: 202, 203); assay: phage binding ELISA on captured Fab;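 also: clonal phage supernatants added briefly to wells pre-incubated with CD28 antigen or with blocking buffer only, then washed, bound phage read by ELISA using HRP-coupled anti-M13 antibody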
Sequence (VH, as listed by the source, chain 1 of 2): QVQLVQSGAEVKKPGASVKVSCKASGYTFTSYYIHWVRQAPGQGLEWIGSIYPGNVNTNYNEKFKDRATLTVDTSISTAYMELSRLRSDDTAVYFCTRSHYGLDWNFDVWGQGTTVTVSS
Sequence (VL, as listed by the source, chain 2 of 2): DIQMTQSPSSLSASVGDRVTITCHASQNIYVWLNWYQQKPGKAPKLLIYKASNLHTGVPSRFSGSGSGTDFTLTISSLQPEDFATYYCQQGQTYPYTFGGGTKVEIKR
value.type: Anti-CD28 Fab signal

INSERT INTO assay_data (binder, value_type, val) VALUES
  ('YCDGHSPLYMWKCL [Phage-82]', 'Anti-CD28 Fab signal', 2.34),
  ('YCEGHLPQYMWKCL [Phage-51]', 'Anti-CD28 Fab signal', 2.44),
  ('PDCQTILFKPWCVR [Phage-4]', 'Anti-CD28 Fab signal', 2.09),
  ('YCQGHAPEYMAKCL [Phage-110]', 'Anti-CD28 Fab signal', 2.28),
  ('YCEGHSQEYLWKCL [Phage-36]', 'Anti-CD28 Fab signal', 2.36),
  ('YCDGHAKEYMWKCL [Phage-102]', 'Anti-CD28 Fab signal', 2.3),
  ('YCDGHSPMYILKCL [Phage-79]', 'Anti-CD28 Fab signal', 2.34),
  ('YCEGHAPEYIRKCL [Phage-30]', 'Anti-CD28 Fab signal', 1.63);
